system: HS 578T breast; test: NCI tumour cell line growth inhibition, 48 h; in the data active = GI50 below about 0.43 µM; inactive = the rest
Outcome field: choose from 1 (yes) = active, 0 (no) = inactive

As a guide, the following entries are already answered.
COc1ccccc1-c1ccc2nc(NC(=O)Nc3cc(C(F)(F)F)cc(C(F)(F)F)c3)sc2c1
0 (no)
O=[N+]([O-])c1cccc(/C=C/c2ccccn2)c1
0 (no)
O=C(C[C@@]1(O)C(=O)Nc2c(Cl)ccc(Cl)c21)c1ccc(C2CC2)cc1
1 (yes)

Input line: Identify the outcome logged in this assay for the compound shown: COc1cc2cn3c4ccc(O)cc4nc(N)c3c2cc1OC
Output line: 0 (no)

Input line: Another compound to check: CSC1=Nc2c(c(C)c(-c3ccccc3)n2CCCCl)C2=NC(=O)CN12
Output line: 0 (no)

Input line: Another compound to check: CC(N)(Cc1c[nH]c2ccccc12)C(=O)O (stereo not given)
Output line: 0 (no)

Input line: Another compound to check: COc1cc(OC)cc(-c2ccc(-c3ccc(C(=N)N)s3)s2)c1
Output line: 0 (no)

Input line: Another compound to check: Cc1cc(C(=O)N[C@@H](CCC(=O)O)C(=O)O)sc1CC[C@@H]1CNc2nc(N)[nH]c(=O)c2C1
Output line: 1 (yes)

Input line: Another compound to check: C=CC(=O)NCCOc1cccc(Nc2cc(NCCCNC(=O)C3CCC3)c(Br)cn2)c1
Output line: 0 (no)

Input line: Another compound to check: COc1ccc2c(c1)CC[C@@H]1[C@@H]2CC[C@]2(C)c3[nH]ncc3C[C@@H]12
Output line: 0 (no)

The reported measurements were obtained from PubChem BioAssay (NCI).
